Source: patent US20220073617A1

SYSTEM TESTED: T1, monovalent hVISTA-ECD (human VISTA extracellular domain with His tail) (human, UniProt Q9H7M9 33-193)
T1 construct: analyte flowed over captured antibody; also called huVISTA-His
T1 sequence (Q9H7M9 other isoform, or with tags, fused parts or gaps limits assumed): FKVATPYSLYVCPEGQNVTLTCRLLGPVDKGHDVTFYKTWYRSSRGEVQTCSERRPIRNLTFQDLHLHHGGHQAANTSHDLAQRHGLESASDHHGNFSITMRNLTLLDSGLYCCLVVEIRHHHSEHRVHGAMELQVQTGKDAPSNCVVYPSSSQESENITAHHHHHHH
TEST: SPR, pH 7.4
Catalogue of binders with associated kon
ASSAY READOUT: kon (M⁻¹ s⁻¹)

P1-064392 (41F11_HC_Mutant: D31E/Y50W/S55E/Y100E 41F11_LC_Mutant: V29D/A64G/Q89E/R91T) (antibody, V domains shown, Kabat positions; also called P1-064392-1) VH: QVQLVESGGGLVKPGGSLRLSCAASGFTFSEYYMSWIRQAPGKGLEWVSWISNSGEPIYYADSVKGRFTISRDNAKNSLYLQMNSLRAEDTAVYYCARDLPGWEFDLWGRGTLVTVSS VL: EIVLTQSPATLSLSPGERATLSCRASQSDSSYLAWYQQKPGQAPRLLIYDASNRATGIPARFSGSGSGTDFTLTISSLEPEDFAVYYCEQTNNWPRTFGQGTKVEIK | 770000
P1-065326 (41F11_VH_D31E/Y50W/S55E/L96E/Y100E VK_A64G) (antibody, V domains shown, Kabat positions; also called P1-065326-1) VH: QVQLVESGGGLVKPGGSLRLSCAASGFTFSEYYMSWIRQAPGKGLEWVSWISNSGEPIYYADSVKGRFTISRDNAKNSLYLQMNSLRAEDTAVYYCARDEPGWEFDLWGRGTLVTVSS VL: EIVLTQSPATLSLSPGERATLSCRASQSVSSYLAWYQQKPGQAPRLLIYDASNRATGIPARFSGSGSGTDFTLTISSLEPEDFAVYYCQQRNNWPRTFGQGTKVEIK | 450000
VISTA.4 A64G (41F11 Vk:A64G) (antibody, human IgG1, kappa, V domains shown, IgG1.3; also called P1-061520; P1-061520-10) VH: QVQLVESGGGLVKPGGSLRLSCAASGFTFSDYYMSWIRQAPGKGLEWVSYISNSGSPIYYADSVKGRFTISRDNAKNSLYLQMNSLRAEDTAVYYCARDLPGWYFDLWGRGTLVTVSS VL: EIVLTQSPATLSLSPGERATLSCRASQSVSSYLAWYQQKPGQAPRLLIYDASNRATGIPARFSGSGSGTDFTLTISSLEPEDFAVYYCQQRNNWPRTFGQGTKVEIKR | 550000
P1-065333 (41F11_VH_T28P/Y50W/S55E/L96E/Y100E VK_A64G) (antibody, human IgG1, kappa, V domains shown, IgG1.3; also called P1-065333-1; VISTA.4 pH-independent progeny) VH: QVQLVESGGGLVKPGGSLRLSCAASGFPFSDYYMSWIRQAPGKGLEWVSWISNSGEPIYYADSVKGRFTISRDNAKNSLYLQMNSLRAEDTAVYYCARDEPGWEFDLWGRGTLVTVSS VL: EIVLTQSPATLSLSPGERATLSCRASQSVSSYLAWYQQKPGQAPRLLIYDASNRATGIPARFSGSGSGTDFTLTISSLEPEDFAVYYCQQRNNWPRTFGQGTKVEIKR | 430000
